Experiment: protein stability index of a GFP-peptide fusion (yeast GPS) (PSI 1-4); higher = more stable; sorted into four equal gates, so the index is relative within each strain
Conditions: san1∆
Examples of sequences with documented protein stability index follow.
measure.name: protein stability index

>>> measured("MKKKLELISYRNESLKN [SRB8]")
2.94
>>> measured("QVSNFAPQVYIITKNEN [GAL11]")
2.38
>>> measured("LGRLNKLRKIAISKKNK [LIN1]")
1.39
>>> measured("KYPMYMQLEEELMKLDG [MED6]")
1.39
>>> measured("VNGFLNLGYCNDKLIVD [RPN1]")
2.89
>>> measured("KETIARVTGGMKVKADR [RPS14A]")
3.31
>>> measured("ANTSNNLFGATANANKP [YJL041W/NSP1]")
3.24
>>> measured("MKNENANPKKLALMTAH [CDC53]")
2.09
>>> measured("AFAGSKNDEVLGLLLPI [RPN1]")
3.05
>>> measured("NIDINNEDENIQLIKIL [YJL041W/NSP1]")
2.99
>>> measured("QADLQAMDRAHRIGQKK [ISW2]")
3.14
>>> measured("TIQSDLNLSLHKLDLAK [SMC2]")
3.01
>>> measured("EALNLLKFFLVDENETV [LIN1]")
1.4
>>> measured("MAVGKNKRLSKGKKGQK [RPS1A]")
1.65
>>> measured("SNRCIVFSKKEPFPHSK [CSN12]")
2.81
>>> measured("QMPLNSNGGNNMLPQRQ [SNF2]")
2.39
>>> measured("GHTLINNYKDLLAVAIA [RPP0]")
1.31
>>> measured("ILYGLVDKGAIMKNKDF [YJL039C/NUP192]")
3.06
>>> measured("ITYDKQEPSASQVKDSV [SRP68]")
2.98
>>> measured("FNGIENQSAYEWNGKSF [ISW2]")
3.31
>>> measured("KIFQTTPEKDLFIGLFT [YCS4]")
2.41
>>> measured("AAIRQPTRYVLIRNVGT [POP1]")
1.77
>>> measured("RREFKQYSLERNSPFWW [PRP8]")
3.1
>>> measured("LNIKPLLDAGCKVVAEM [SKP1]")
1.85
>>> measured("WSKTIKARTNLHQHVVL [RPC34]")
1.71
>>> measured("NEPSQSLISTRNDSTVN [BRN1]")
3.08
>>> measured("NESKIKELNEKIQKLEE [RPN7]")
2.26
>>> measured("KLNVDQFISSRQFEVKQ [POP1]")
3.01
>>> measured("QLYEDLCRYEDTLSKLV [MED4]")
2.75
>>> measured("YSFGGLLMRLEGNYRNL [RPB8]")
3.06
